Numbers sourced from PubChem BioAssay.

Biological target: Torsin-1A-interacting protein 1 (Homo sapiens)
Assay: LAP1 binders from COS7 cell lysate, primary screen, small-molecule microarray, 635/667 nm fluorescence (AID 1116)
Details: COS7-hLAP1 lysate binding, 635 nm fluorescence, higher = more signal
Below is a list of entries, each paired with its recorded composite z-score value.
PROPERTY: composite z-score

COMPOUND	TARGET SYSTEM	PROPERTY	ENDPOINT VALUE
C=CC[C@H](OC(=O)Nc1ccc(SC)cc1)c1ccc(OCCO)cc1	Torsin-1A-interacting protein 1 (Homo sapiens)	composite z-score	-0.286
COCCOC(=O)N1C(=O)[C@@]2(c3cc(C#CC4=CCCCC4)ccc31)[C@H](C(=O)N1CCCCCCC1)[C@H]1C(=O)O[C@H](c3ccccc3)[C@H](c3ccccc3)N1[C@@H]2c1ccc(OCCO)cc1	Torsin-1A-interacting protein 1 (Homo sapiens)	composite z-score	1.05
COc1ccc([Si](C)(C)[C@H]2[C@H](CC(=O)N3CCC[C@H]3CO)O[C@@]3(C(=O)N(Cc4ccc(N5CCC5=O)cc4)c4ccccc43)[C@@H]2C)cc1	Torsin-1A-interacting protein 1 (Homo sapiens)	composite z-score	1.53
COC(=O)[C@@]1(Cc2ccccc2CN=[N+]=[N-])N=C(c2ccc(OCCCO)cc2)O[C@H]1c1ccccc1CN=[N+]=[N-]	Torsin-1A-interacting protein 1 (Homo sapiens)	composite z-score	1.1
C=CCC(OC(C)=O)[C@@H]1[C@@H](N(Cc2cc3ccccc3o2)C(=O)c2ccc(-c3ccccc3)cc2)c2cc(OCCCO)ccc2N1C(=O)Cc1ccc(OC)cc1 (stereo not given in full)	Torsin-1A-interacting protein 1 (Homo sapiens)	composite z-score	-0.195
COCCOC(=O)N1C(=O)[C@@]2(c3cc(C#CC4=CCCCC4)ccc31)[C@H](c1ccc(O)cc1)N1[C@H](c3ccccc3)[C@H](c3ccccc3)OC(=O)[C@H]1[C@@H]2C(=O)NC[C@H](O)c1ccccc1	Torsin-1A-interacting protein 1 (Homo sapiens)	composite z-score	1.39
CCOC(=O)C=Cc1cc(F)ccc1O	Torsin-1A-interacting protein 1 (Homo sapiens)	composite z-score	-0.207
NC(=O)NCC#Cc1ccc2c(c1)[C@]1(C(=O)N2)[C@H](C(=O)N2CCN(c3ncccn3)CC2)[C@H]2C(=O)O[C@H](c3ccccc3)[C@H](c3ccccc3)N2[C@@H]1c1ccc(OCCO)cc1	Torsin-1A-interacting protein 1 (Homo sapiens)	composite z-score	0.572
CC1CC/C=C\[C@H]2OC34C=CCN(CCN5CCOCC5)C(=O)[C@H]3N(C(C)CO)C(=O)[C@@H]4C2C(=O)O1 (stereo not given in full)	Torsin-1A-interacting protein 1 (Homo sapiens)	composite z-score	-0.719
CC(C)CNC(=O)[C@@H]1c2ccccc2C(=O)N(C2CCCCC2)[C@H]1c1ccc(CO)cc1	Torsin-1A-interacting protein 1 (Homo sapiens)	composite z-score	0.875
COc1ccc([Si](C)(C)[C@H]2[C@H](CCO)O[C@@]3(C(=O)N(Cc4ccc(N5C(=O)c6ccccc6Oc6ccccc65)cc4)c4ccccc43)[C@@H]2C)cc1	Torsin-1A-interacting protein 1 (Homo sapiens)	composite z-score	-0.438
CCOC(=O)C=Cc1ccccc1O	Torsin-1A-interacting protein 1 (Homo sapiens)	composite z-score	0.0446
O=C1C2C=CC(C(O)c3ccc(I)cc3)N(Nc3ccccc3)C2C(=O)N1c1ccccc1 (stereo not given)	Torsin-1A-interacting protein 1 (Homo sapiens)	composite z-score	1.83
COc1cc(NN2C(C(O)c3ccc(I)cc3)C=CC3C(=O)N(c4ccccc4)C(=O)C32)cc(OC)c1OC (stereo not given)	Torsin-1A-interacting protein 1 (Homo sapiens)	composite z-score	1.64
O=C1[C@@]23C=C(Br)[C@H](C[C@@H]2COC3)[C@@]12CO2	Torsin-1A-interacting protein 1 (Homo sapiens)	composite z-score	0.245
